Data credit: patent US7858621B2

- target_or_system: vanilloid receptor (Rattus norvegicus)
- Construct: DRG nerve cells from the primary culture of 2 days were equilibrated; endogenous in cells; host or cells: primary culture of dorsal root ganglion neurons from neonatal SD rats
- experiment: 45Ca influx test in cultured neonatal rat DRG neurons, inhibition of capsaicin response
- Assay type: cell-based
- condition_summary: neonatal rat DRG neurons, capsaicin 0.5 μM, 45Ca influx; read-out: Antagonist Calcium Uptake Test (IC50)
- Procedure: 1) Separation of Spinal Dorsal Root Ganglia (DRG) in Newborn Rats and Primary Culture Thereof Neonatal (2-3 day old or younger than 2-3 day old) SD rats were put in ice for 5 minutes to anesthetize and disinfected with 70% ethanol. […] The DRG were incubated sequentially at 37° C. for 30 mins in 200 U/ml collagenase and 2.5 mg/ml trypsin, separately. […]
pIC50: −log10 of the molar value.
Reported pIC50 by item:

{"compound": "C#Cc1cc(CNC(=O)/C=C/c2ccc(C(F)(F)F)nc2OCC(C)C)cc(F)c1NS(C)(=O)=O", "pIC50": 6.29}
{"compound": "C#Cc1cc(CNC(=O)/C=C/c2ccc(C(F)(F)F)nc2OC(C)CC)cc(F)c1NS(C)(=O)=O (stereo not shown)", "pIC50": 6.47}
{"compound": "C#Cc1cc(CNC(=O)/C=C/c2ccc(C(C)(C)C)nc2OC)cc(F)c1NS(C)(=O)=O", "pIC50": 6.54}
{"compound": "C#Cc1cc(CNC(=O)/C=C/c2ccc(C(F)(F)F)nc2OC(C)C)cc(F)c1NS(C)(=O)=O", "pIC50": 6.89}
{"compound": "C#Cc1cc(CNC(=O)/C=C/c2ccc(C(F)(F)F)nc2-c2ccsc2)cc(F)c1NS(C)(=O)=O", "pIC50": 6.57}
{"compound": "COc1nc(C(F)(F)F)ccc1/C=C/C(=O)NCc1ccc(NS(C)(=O)=O)c(F)c1", "pIC50": 5.68}
{"compound": "CCCCc1nc(C(F)(F)F)ccc1/C=C/C(=O)NCc1cc(C)c(NS(C)(=O)=O)c(F)c1", "pIC50": 7.05}

---

- target_or_system: vanilloid receptor (Rattus norvegicus, UniProt O35433)
- Construct: DRG nerve cells from the primary culture of 2 days were equilibrated; endogenous in cells; host or cells: primary culture of dorsal root ganglion neurons from neonatal SD rats
- Sequence (O35433 whole entry): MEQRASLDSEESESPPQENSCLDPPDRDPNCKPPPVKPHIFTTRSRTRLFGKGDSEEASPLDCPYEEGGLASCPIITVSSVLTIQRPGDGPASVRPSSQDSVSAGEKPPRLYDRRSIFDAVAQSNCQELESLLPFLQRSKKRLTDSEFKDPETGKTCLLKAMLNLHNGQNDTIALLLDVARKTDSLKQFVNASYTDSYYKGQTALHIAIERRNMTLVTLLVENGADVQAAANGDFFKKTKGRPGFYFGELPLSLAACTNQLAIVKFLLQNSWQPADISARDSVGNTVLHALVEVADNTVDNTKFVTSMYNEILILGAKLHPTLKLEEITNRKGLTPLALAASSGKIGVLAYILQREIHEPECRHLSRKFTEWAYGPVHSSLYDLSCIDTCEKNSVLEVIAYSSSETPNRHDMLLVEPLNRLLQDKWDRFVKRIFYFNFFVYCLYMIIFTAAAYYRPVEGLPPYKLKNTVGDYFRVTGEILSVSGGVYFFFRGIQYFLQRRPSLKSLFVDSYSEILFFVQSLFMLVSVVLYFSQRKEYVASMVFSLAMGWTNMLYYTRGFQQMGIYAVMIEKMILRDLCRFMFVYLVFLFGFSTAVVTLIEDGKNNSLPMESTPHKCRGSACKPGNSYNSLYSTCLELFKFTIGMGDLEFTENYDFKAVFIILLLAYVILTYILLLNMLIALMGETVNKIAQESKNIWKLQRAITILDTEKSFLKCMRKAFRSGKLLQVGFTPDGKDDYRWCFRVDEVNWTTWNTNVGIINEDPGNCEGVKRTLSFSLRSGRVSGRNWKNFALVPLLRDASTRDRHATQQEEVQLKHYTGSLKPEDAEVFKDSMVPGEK
- experiment: 45Ca influx test in cultured neonatal rat DRG neurons, inhibition of capsaicin response
- Type: cell-based
- condition_summary: neonatal rat DRG neurons, capsaicin 0.5 μM, 45Ca influx; read-out: Antagonist Calcium Uptake Test (IC50)
pIC50: −log10 of the molar value.
Label scheme for pIC50: lower than 6 is NO, 6 and above is YES.

{"compound": "CS(=O)(=O)Nc1ccc(CNC(=O)/C=C/c2ccc(N3CCCC3)nc2)cc1F [Example 25]", "assigned_category": "NO"}
{"compound": "CCC(C)Nc1nc(C(F)(F)F)ccc1/C=C/C(=O)NCc1ccc(NS(C)(=O)=O)c(C)c1 (centres unmarked) [Example 176]", "assigned_category": "YES"}
{"compound": "C#Cc1cc(CNC(=O)/C=C/c2ccc(Cl)nc2)cc(F)c1NS(C)(=O)=O [Example 14]", "assigned_category": "NO"}
{"compound": "COCCCc1nc(C(F)(F)F)ccc1/C=C/C(=O)NCc1ccc(NS(C)(=O)=O)c(F)c1 [Example 156]", "assigned_category": "NO"}
{"compound": "C=CS(=O)(=O)Nc1ccc(CNC(=O)/C=C/c2ccc(C(F)(F)F)nc2CCc2ccccc2)cc1 [Example 268]", "assigned_category": "NO"}
